Recorded values, source the emibetuzumab library of Makowski et al. (2022).

B1: VH:VL chains; a variant is named by its letters at X, in order (parent)
chain 1: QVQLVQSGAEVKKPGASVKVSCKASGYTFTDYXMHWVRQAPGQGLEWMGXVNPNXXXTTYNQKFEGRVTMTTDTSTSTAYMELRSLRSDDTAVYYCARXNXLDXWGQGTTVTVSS
chain 2: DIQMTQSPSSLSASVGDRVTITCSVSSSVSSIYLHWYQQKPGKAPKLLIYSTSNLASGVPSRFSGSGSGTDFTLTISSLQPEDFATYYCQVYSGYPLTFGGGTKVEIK

Variants of: B1
test_protocol: yeast display scFab, FACS + sequencing
measured_endpoint: non-specific binding call

Use the examples below as a reference point.
VRGRGVGY ... binds
YRRRGALF ... binds
YKGAAFAD ... binds
YAAGGDVA ... no binding
YKGRGDGD ... no binding

Challenge: # query: non-specific binding call of entry VRGRSAWS
Response given: no binding

Challenge: What non-specific binding call value was documented for this variant, FTTRSALS ?
Response given: binds

Challenge: Requested field: non-specific binding call. Item: SRGRGAWS
Response given: binds

Challenge: Please give the measured non-specific binding call for this variant: VAEGDAAD
Response given: no binding

Challenge: For the variant FEATASWS , what non-specific binding call is on record?
Response given: binds

Challenge: Any idea what its non-specific binding call is? The variant is SEGRGDVY
Response given: no binding

Challenge: Which non-specific binding call is listed for VRAGDSLD ?
Response given: no binding

Challenge: Look up non-specific binding call: FRGKGAAA
Response given: binds

Challenge: Fill in the blank: the reported non-specific binding call of DEKKADWA is ____.
Response given: no binding
